Data origin: ChEMBL document CHEMBL1201862

System: RXF 393
Experiment: NCI tumour cell line growth inhibition, 48 h
Activity calls are given as the source filed them. Rule as the data show it: active = GI50 up to about 1.1 µM and inactive = higher.
Assay Readout: GI50

- CC(C)(C)OC/C=C1\C(=O)O[C@H]2C[C@@H](O[Si](C)(C)C(C)(C)C)C[C@@H]12: 32.2 µM (inactive)
- Cc1cn(C2CC(O)C(COP(=O)(O)OC3CC(n4c[n+]([BH2-]C#N)c5c(=O)[nH]c(N)nc54)OC3CO)O2)c(=O)[nH]c1=O (stereo unspecified): > 100 µM (inactive)
- O=C(CC1(O)C(=O)Nc2c(Cl)cc(Cl)cc21)c1cccc2ccccc12 (stereo unspecified): 20.6 µM (inactive)
- O=C(/C=C/c1ccc(O)c(O)c1)O[C@H]1CCCC[C@@H]1OC(=O)/C=C/c1ccc(O)c(O)c1: 10.5 µM (inactive)
- C[C@]12CC[C@H](O)CC1=CC[C@@H]1C2CC[C@]2(C)Nc3c(cnn3-c3ccc(F)cc3)CC12 (stereo partly specified): 2.25 µM (inactive)
- CC1CN=C(Nc2cccc(C(F)(F)F)c2)S1 (stereo unspecified): 42.9 µM (inactive)
- N#CC1=C(N)C(C#N)(C#N)C(c2ccc(F)cc2)C=C1C1CC1 (stereo unspecified): 5.96 µM (inactive)
- C/C(=N/N)c1sc(-c2nc(C)c(/C(C)=N\N)s2)nc1C: > 100 µM (inactive)
- CC(C)N1CN(c2ccccc2)C2(CCN(CCCC(=O)c3ccc(F)cc3)CC2)C1=O: 28.4 µM (inactive)
- CC1=NN(c2nc(N)nc(CSc3cc(Cl)c(C)cc3S(N)(=O)=O)n2)C(C)(C)C1: > 10 µM (inactive)
- COc1ccc(C2Oc3cc(OC)c(O)c(C)c3[C@H]2C)cc1 (stereo partly specified): 23 µM (inactive)
- COc1cc2c(cc1OC)C1[C@@H](c3ccccc3)OCN1CC2 (stereo partly specified): > 100 µM (inactive)
- O=C1N[C@@H]([C@H]2CC[C@H](Cl)CN2)C(=O)N[C@H]1[C@H]1CC[C@H](Cl)CN1: 2.04 µM (inactive)
- CCOC(=O)[C@H]1Nc2c(cccc2[N+](=O)[O-])[C@H]2OCC[C@@H]12: > 100 µM (inactive)
- CCOc1ccccc1NC(=O)CC(C(=O)OC)C(=O)C(=O)OC (stereo unspecified): > 100 µM (inactive)
- O=S(=O)(/C=C/C=C/S(=O)(=O)c1ccccc1)c1ccccc1: 0.36 µM (active)
- COc1nc2c(c(=O)n1C)N=C(c1ccc(Cl)cc1)CC(c1ccccc1)N2 (stereo unspecified): 22.5 µM (inactive)
- Nc1c(Br)cc2c(c1Br)Cc1cc(Br)ccc1-2: > 100 µM (inactive)
- CCCCCCCCCCCCCCCCOP(=O)(O)Oc1ccc(/C=C\c2ccc(OP(=O)(O)OCCCCCCCCCCCCCCCC)cc2)cc1: 2.47 µM (inactive)
- Br[C@@H]1[C@H]2c3nc4ccccc4nc3[C@@H]1C[C@H]2Br: 37.7 µM (inactive)
- COc1cc2c(cc1OC)C1(c3ccccc3)CN(C2)Cc2cc(OC)c(OC)cc21: 22.8 µM (inactive)
- C=C1C(C(=O)O)C1C(=O)O (stereo unspecified): > 100 µM (inactive)
- COC1CCCc2c(OC(C)=O)ccc(OC(C)=O)c21 (stereo unspecified): > 100 µM (inactive)
- Cn1ccnc1Oc1ccc(Cl)cc1: 16.9 µM (inactive)
- Cc1ccc(/C=C2\N=C(N3CCCCC3)NC2=O)cc1: > 100 µM (inactive)
- CC1(C)Oc2ccc3ccc(=O)oc3c2C(O)C1O (stereo unspecified): 67.1 µM (inactive)
- CCOC(=O)c1cc(Br)c(-c2cc(C)co2)[nH]1: > 100 µM (inactive)
- OCC1OC(O)C(/N=C\c2ccc3c(c2)OCO3)C(O)C1O (stereo unspecified): > 100 µM (inactive)
- Cc1ccc(NC(=O)CC(=O)N2N=C(N(C)c3ccccc3)CC2c2ccccc2)cc1 (stereo unspecified): > 100 µM (inactive)
- CCOC(=O)c1cccc(/N=N/Nc2cccc(C(=O)OCC)c2)c1: 19.1 µM (inactive)
- COc1ccc(-c2cc(-c3ccccc3)c(C#N)c(=O)n2C2OC(CO)C(O)C(O)C2O)cc1 (stereo unspecified): > 100 µM (inactive)
- O=C(CN(c1ccccc1)c1ccccc1)n1nnc2ccccc21: 26.1 µM (inactive)
- N#Cc1c(N)c2c(c(-c3ccccc3)c1-c1ccccc1)C(=O)N(N)C2=O: 58.7 µM (inactive)
- COC1(OC)N=C(N)C2(C#N)C(C)CC(=O)N(N(C)C)C12C#N (stereo unspecified): > 100 µM (inactive)
- O=c1[nH]/c(=C/c2ccc(OCc3ccccc3)cn2)c(=O)[nH]/c1=C/c1ccc(O)cc1: 0.865 µM (active)
- CN(C)C(=O)CO/N=C1/C(=C2/C(=O)Nc3ccccc32)Nc2ccccc21: 17.7 µM (inactive)
- Nc1ncnc2c1nc(-c1ccccc1)n2C1OC(CO)C(O)C1O (stereo unspecified): > 100 µM (inactive)
- O=C1C=C(Nc2ccccc2C(=O)CC(=O)C(=O)Nc2ccc(Cl)cc2)c2ccccc2C1=O: 11.5 µM (inactive)
- CCN(CC)CCNc1ccc2nnn3c4ccc([N+](=O)[O-])cc4c(=O)c1c23: 4.78 µM (inactive)
- O=C1N[C@@H]2c3c(Br)sc(Br)c3C(=O)[C@@H]2O1: 2.2 µM (inactive)
- COC(=O)C(CCCCCCCC(C(=O)OC)C1=Nc2nnc(N)n2C1=O)C1=Nc2nnc(N)n2C1=O (stereo unspecified): 55.8 µM (inactive)
